Reported PI3Ka IC50 values for a set of compounds
measurement.target: PI3Kα (Homo sapiens (Human))
experimental.details: Inhibition of PI3Kα (ADP-Glo kinase activity assay, ATP to ADP conversion)
Type: biochemical
test.context: 25 μM PIP2:PS, 60 μM ATP, 30 min reaction, luminescence

Example entries and their recorded answers appear below.
Entry O=S(=O)(Cc1ccccc1)c1cc(-c2cnc(NC3CC3)nc2)cc(N2CCOCC2)c1 [Compound 104] ; PI3Ka IC50 = 1300 nM

Measured PI3Ka IC50 of O=S(=O)(Cc1ccc(F)cc1)c1cc(-c2cccc(OC(F)(F)F)c2)cc(N2CCOCC2)c1 [Compound 46] : 19000 nM

In plain terms, CC(C)(C)OC(=O)N1CCC(N2CC(S(=O)(=O)c3cc(-c4cnc(N)nc4)cc(N4CCOCC4)c3)C2)CC1 [Compound 67] has a documented PI3Ka IC50 of 800 nM

The value of PI3Ka IC50 measured for the compound Nc1ncc(-c2cc(N3CCOCC3)nc(S(=O)(=O)c3ccccc3)c2)cn1 [Compound 118] turned out to be 880 nM

Just so you know, measured PI3Ka IC50 for Nc1ccc(-c2cc(N3CCOCC3)cc(S(=O)(=O)Cc3ccc(F)cc3F)c2)nc1 [Compound 98] came out at 12000 nM

# PI3Ka IC50 of Nc1ncc(-c2cc(N3CCOCC3)cc(S(=O)(=O)c3ccc(F)cc3)c2)cn1 [Compound 8] = 1300 nM

Entry CNc1ncc(-c2cc(N3CCOCC3)cc(S(=O)(=O)c3ccccc3)c2)cn1 [Compound 16] ; PI3Ka IC50 = 1500 nM

Value of PI3Ka IC50 reported for the compound Nc1ncc(-c2cc(N3CCCCC3)cc(S(=O)(=O)c3ccccc3)c2)cn1 [Compound 25] is 30000 nM

Others:
response.value for Nc1ncc(-c2cc(N3CCOCC3)cc(S(=O)(=O)c3ccc4ccoc4c3)c2)cn1 [Compound 112] (field: PI3Ka IC50) = 2300 nM

PI3Ka IC50 recorded for this compound, CC(C)(O)CNc1ccc(CS(=O)(=O)c2cc(-c3cnc(N)nc3)cc(N3CCOCC3)c2)cc1 [Compound 84] , is 600 nM

Query Nc1ncc(-c2cc(N3CCOCC3)cc(S(=O)(=O)c3ccccc3)c2)c(C(F)(F)F)n1 [Compound 3] yields PI3Ka IC50 of 2000 nM

----------
Here, each record is paired with measured log10 IC50 data.
measurement.target: mTor kinase (Homo sapiens (Human), UniProt P42345)
Where a name gives a salt, the structure may show the parent alone.
Recorded IC50 (log10, µM)

Field log10 IC50 (mTor kinase (Homo sapiens (Human), UniProt P42345)), entry Nc1ncc(-c2cc(N3CCOCC3)cc(S(=O)(=O)Cc3c[nH]c4ccccc34)c2)cn1 [48 (as a TFA salt)] : 0.81

Fill in: mTor kinase (Homo sapiens (Human), UniProt P42345) log10 IC50 for Nc1ncc(-c2cc(N3CCOCC3)cc(S(=O)(=O)c3ccc(F)cc3)c2)cn1 [Compound 8] = -0.08

Assay mTor kinase (Homo sapiens (Human), UniProt P42345), sample Nc1ncc(-c2cc(N3CCOCC3)cc(S(=O)(=O)C3COc4ccccc43)c2)cn1 (stereo not drawn) [Compound 119] , log10 IC50 read: 0.67

log10 IC50 of Nc1ncc(-c2cc(C(=O)c3ccccc3)cc(N3CCOCC3)n2)cn1 [Compound 122] , assay on mTor kinase (Homo sapiens (Human), UniProt P42345), is -0.29

Entry Cc1ccc(S(=O)(=O)c2cc(-c3cnc(N)nc3)cc(N3CCOCC3)c2)cc1 [Compound 21] under mTor kinase (Homo sapiens (Human), UniProt P42345) had log10 IC50 of 0.97

Others:
log10 IC50 on mTor kinase (Homo sapiens (Human), UniProt P42345) for Nc1ncc(-c2cc(N3CCOCC3)cc(S(=O)(=O)c3cccc4c3OCC4)c2)cn1 [Compound 111] is 0.73

The reported mTor kinase (Homo sapiens (Human), UniProt P42345) log10 IC50 of N#Cc1cccc(CS(=O)(=O)c2cc(-c3cnc(N)nc3)cc(N3CCOCC3)c2)c1 [Compound 27] is 1.04

Value sought: log10 IC50, system mTor kinase (Homo sapiens (Human), UniProt P42345), item Nc1ncc(-c2cc(Oc3ccccc3)cc(N3CCOCC3)n2)cn1 [Compound 120] . Result: -0.32

Bench note, mTor kinase (Homo sapiens (Human), UniProt P42345): Nc1ncc(-c2cc(N3CCOCC3)cc(S(=O)(=O)c3ccccc3)c2)cn1 [Compound 1] , log10 IC50 reads 0.30

----------
measurement.target: PI3Kα (Homo sapiens (Human))
experimental.details: Inhibition of PI3Kα (ADP-Glo kinase activity assay, ATP to ADP conversion)
Assay type: biochemical
test.context: 25 μM PIP2:PS, 60 μM ATP, 30 min reaction, luminescence
Counter-ions that a name gives are not always drawn.
measurement.name: PI3Ka IC50 (nM)
Enter your answer as a number in nM; do not include the unit.

Solved cases below.
Please fill in: PI3Ka IC50 reported for Nc1ncc(-c2cc(Oc3ccccc3)cc(N3CCOCC3)n2)cn1 = 91

Kindly note the recorded PI3Ka IC50 for COc1ccc(-c2cc(N3CCOCC3)cc(S(=O)(=O)Cc3ccc(F)cc3)c2)cc1N , which is 11000

Record summary for Nc1ncc(-c2cc(N3CCOCC3)cc(S(=O)(=O)Cc3c[nH]c4ccccc34)c2)cn1 [48 (as a TFA salt)] : reported PI3Ka IC50 = 470

Next compound, please.
The value of PI3Ka IC50 measured for the compound Nc1ncc(-c2cc(S(=O)(=O)C3CCOc4ccccc43)cc(N3CCOCC3)n2)cn1 (racemic) turned out to be 1.7

----------
Reported values of PI3Ka IC50 for individual entries
measurement.target: PI3Kα (Homo sapiens (Human), UniProt P42336)
Sequence (P42336 whole entry): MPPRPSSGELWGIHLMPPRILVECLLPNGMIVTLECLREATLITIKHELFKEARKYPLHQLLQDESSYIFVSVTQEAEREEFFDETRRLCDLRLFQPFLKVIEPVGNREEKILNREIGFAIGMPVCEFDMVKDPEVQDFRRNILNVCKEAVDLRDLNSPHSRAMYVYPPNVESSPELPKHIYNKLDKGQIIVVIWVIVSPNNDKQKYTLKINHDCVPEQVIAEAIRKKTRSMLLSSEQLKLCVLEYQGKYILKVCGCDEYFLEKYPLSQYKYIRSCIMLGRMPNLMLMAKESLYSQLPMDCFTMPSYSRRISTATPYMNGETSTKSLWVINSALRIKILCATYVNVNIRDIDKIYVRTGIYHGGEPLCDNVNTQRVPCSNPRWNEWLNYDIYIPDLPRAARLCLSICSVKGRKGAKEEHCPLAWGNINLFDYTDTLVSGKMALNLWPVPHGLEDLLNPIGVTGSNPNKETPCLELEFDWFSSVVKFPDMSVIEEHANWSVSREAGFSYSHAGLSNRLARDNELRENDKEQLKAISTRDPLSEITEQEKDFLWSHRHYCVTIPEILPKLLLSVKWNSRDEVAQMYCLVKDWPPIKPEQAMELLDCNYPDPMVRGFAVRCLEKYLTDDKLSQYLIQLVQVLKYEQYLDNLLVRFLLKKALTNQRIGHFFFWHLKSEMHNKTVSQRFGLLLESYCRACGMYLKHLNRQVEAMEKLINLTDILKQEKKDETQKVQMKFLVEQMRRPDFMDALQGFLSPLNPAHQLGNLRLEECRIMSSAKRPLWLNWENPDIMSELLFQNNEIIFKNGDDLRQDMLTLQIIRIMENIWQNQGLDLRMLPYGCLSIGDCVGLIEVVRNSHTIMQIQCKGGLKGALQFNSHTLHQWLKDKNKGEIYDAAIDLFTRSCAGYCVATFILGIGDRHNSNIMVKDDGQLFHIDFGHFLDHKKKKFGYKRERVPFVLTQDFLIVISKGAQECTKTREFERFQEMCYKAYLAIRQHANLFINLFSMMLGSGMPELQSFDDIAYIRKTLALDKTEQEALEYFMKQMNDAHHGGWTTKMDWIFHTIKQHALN
Sequence (P27986 whole entry partner): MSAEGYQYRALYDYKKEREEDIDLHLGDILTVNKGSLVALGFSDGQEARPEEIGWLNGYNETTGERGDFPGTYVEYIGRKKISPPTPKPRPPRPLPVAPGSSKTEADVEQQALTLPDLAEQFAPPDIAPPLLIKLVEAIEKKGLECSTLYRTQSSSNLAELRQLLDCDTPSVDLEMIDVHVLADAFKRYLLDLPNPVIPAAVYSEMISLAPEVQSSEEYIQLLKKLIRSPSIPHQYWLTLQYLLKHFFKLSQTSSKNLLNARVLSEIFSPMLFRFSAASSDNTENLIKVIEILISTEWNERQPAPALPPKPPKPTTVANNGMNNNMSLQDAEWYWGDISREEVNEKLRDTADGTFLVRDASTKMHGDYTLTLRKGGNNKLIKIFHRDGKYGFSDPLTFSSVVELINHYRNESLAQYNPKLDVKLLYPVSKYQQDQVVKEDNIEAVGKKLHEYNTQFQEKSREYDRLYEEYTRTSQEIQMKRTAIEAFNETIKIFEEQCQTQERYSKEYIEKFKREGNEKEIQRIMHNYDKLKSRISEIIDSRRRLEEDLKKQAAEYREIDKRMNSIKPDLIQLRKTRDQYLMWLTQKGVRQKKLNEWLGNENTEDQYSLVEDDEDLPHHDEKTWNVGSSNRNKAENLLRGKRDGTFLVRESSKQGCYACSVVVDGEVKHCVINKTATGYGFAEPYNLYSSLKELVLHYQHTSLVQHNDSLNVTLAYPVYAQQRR
experimental.details: Inhibition of PI3Kα (ADP-Glo kinase activity assay, ATP to ADP conversion)
Assay type: biochemical
test.context: 25 μM PIP2:PS, 60 μM ATP, 30 min reaction, luminescence
Experimental: Quantification of ATP to ADP conversion as a measure of PI3Kα activity. […] The conversion of ATP to ADP by PI3Kα was measured as luminescence signal via Promega ADP-Glo kinase activity assay. […] Compounds were prepared at 100× final concentration as a 12-point, 1:3 serial-dilution in DMSO series, with DMSO control as 12th point. […] ATP to ADP conversion was measured in Luminescence Counts on DTX880 Plate Reader (Beckman Coulter). […]
Give the value in µM but do not write µM after it.

Here's what some known entries look like.
Reported PI3Ka IC50 of COc1ncc(-c2cc(N3CCOCC3)cc(S(=O)(=O)c3ccccc3)c2)cn1 : 5.0

For Nc1ncc(-c2cc(N3CCOCC3)cc(S(=O)(=O)c3c[nH]c4ccccc34)c2)cn1 the compound record lists PI3Ka IC50 as 2.4

// N#Cc1cccc(S(=O)(=O)c2cc(-c3cnc(N)nc3)cc(N3CCOCC3)c2)c1 : PI3Ka IC50 value = 0.91

Next:
Lookup result for CCC(=O)N1CC(S(=O)(=O)c2cc(-c3cnc(N)nc3)cc(N3CCOCC3)c2)C1 ; measured PI3Ka IC50: 0.25

Form: compound = Nc1ncc(-c2cc(N3CCOCC3)cc(S(=O)(=O)c3ccc(N4CCOCC4)cc3)c2)cn1 ; PI3Ka IC50 = 1.1

get_value(item= Nc1ncc(-c2cc(N3CCOCC3)cc(S(=O)(=O)c3ccc(OC(F)(F)F)cc3)c2)cn1 , readout=PI3Ka IC50) returns 3.5

PI3Ka IC50 reported for this compound Nc1cc(C(F)(F)F)c(-c2cc(N3CCOCC3)cc(S(=O)(=O)[C@@H]3CCOC3)c2)cn1 : 9.1

compound CC(c1ccccc1)c1cc(-c2cnc(N)nc2)nc(N2CCOCC2)c1 (stereo not shown) , PI3Ka IC50 observed: 0.21

----------
Listed below: PI3Ka IC50 values for each entry.
measurement.target: PI3Kα (Homo sapiens (Human))
experimental.details: Inhibition of PI3Kα (ADP-Glo kinase activity assay, ATP to ADP conversion)
Format: biochemical
test.context: 25 μM PIP2:PS, 60 μM ATP, 30 min reaction, luminescence
Entry rule: numbers only, all in µM.

Recorded PI3Ka IC50 (compound CC(=O)N1CCC(S(=O)(=O)c2cc(-c3cnc(N)nc3)cc(N3CCOCC3)c2)C1 (stereo not shown) ): 0.18

Field PI3Ka IC50 (entry Nc1ncc(-c2cc(N3CCOCC3)cc(S(=O)(=O)Cc3ccc(F)cc3)c2)cn1 ) reads 0.37

Form field PI3Ka IC50, entry CN(C)C(=O)N1CC(S(=O)(=O)c2cc(-c3cnc(N)nc3)cc(N3CCOCC3)c2)C1 : 0.12

As a next step, examine the compound that follows.
The measured PI3Ka IC50 associated with O=S(=O)(Cc1ccc(F)cc1)c1cc(-c2ccc3c(c2)OCCN3)cc(N2CCOCC2)c1 reads 5.9
